# protocol: Displacement of [3H]colchicine from tubulin at 5 uM for 10 mins
experimentalEndpoint: inhibition (%)
Please respond with the number in % and leave the unit unwritten.

{"smilesString": "CCC1=C(O)c2c(oc(-c3ccc(C)c4ccccc34)cc2=O)C(CC)(CC)C1=O", "inhibition / %": 50}
{"smilesString": "CC1=C(O)c2c(oc(-c3ccc(C)c4ccccc34)cc2=O)C(C)(C)C1=O", "inhibition / %": 37}
{"smilesString": "CC1=C(O)c2c(oc(-c3csc4ccccc34)cc2=O)C(C)(C)C1=O", "inhibition / %": 69}

Moving on to the next compound.
Enquiry: Write down inhibition measured for item CCC1=C(O)c2c(oc(-c3ccc4ccccc4c3)cc2=O)C(CC)(CC)C1=O
Return: 29

* * *

# Tested on: HCT-8
# protocol: Antiproliferative activity against human HCT8 cells after 3 days by sulforhodamine B assay
# Format: functional
# conditionsUsed: HCT-8, 72 h
Listing of recorded GI50 by entry.
Respond numerically; units are µM and should not be typed.

Example entries begin here.
{"smilesString": "CCCC1=C(O)c2c(oc(-c3cccc4ccccc34)cc2=O)C(CCC)(CCC)C1=O", "unitsSymbol": "µM", "GI50": 23.3}
{"smilesString": "CCC1=C(O)c2c(oc(-c3cc4ccccc4c4ccccc34)cc2=O)C(CC)(CC)C1=O", "unitsSymbol": "µM", "GI50": 12.8}
{"smilesString": "CCC1=C(O)c2c(oc(-c3ccc(OC)c4ccccc34)cc2=O)C(CC)(CC)C1=O", "unitsSymbol": "µM", "GI50": 3.35}

Consider the record given below.
Enquiry: Kindly indicate its recorded GI50. Item: CCC1=C(O)c2c(oc(-c3c(O)ccc4sccc34)cc2=O)C(CC)(CC)C1=O
Return: 3.66
